Test system: 695427-040-R-J1-PDC complex spheroid viability
Experiment: Anticancer human tumor 695427-040-R-J1-PDC patient-derived colon adenocarcinoma cell line growth inhibition [RAS]
Details: second compound 0.0949 µM; first compound 3.16 µM; hits give low values

>  <compound>
CC(C)NCC(C(=O)N1CCN(c2ncnc3c2C(C)CC3O)CC1)c1ccc(Cl)cc1 (centres undefined) + CCn1c(-c2cccnc2C(C)OC)c2c3cc(ccc31)N1CCOC(CC(NC(=O)C(C(C)C)N(C)C(=O)C3(F)CCN(C(=O)C#CC(C)(C)N(C)C)CC3)C(=O)N3CCCC(N3)C(=O)OCC(C)(C)C2)C1

>  <result units>
%

>  <viability, T/C>
77.1

$$$$
>  <compound>
NC1c2ccccc2OC12CCN(c1cnc3c(N4CCCc5ncccc54)n[nH]c3n1)CC2 (centres undefined) + CCn1c(-c2cc(N3CCN(C)CC3)cnc2C(C)OC)c2c3cc(ccc31)-c1csc(n1)CC(NC(=O)C1CC1C)C(=O)N1CCCC(N1)C(=O)OCC(C)(C)C2

>  <result units>
%

>  <viability, T/C>
14.1

$$$$
>  <compound>
Cc1nc(N2CCC3(CC2)COC(C)C3N)c(CO)nc1Sc1ccnc(N)c1Cl (centres undefined) + CCn1c(-c2cccnc2C(C)OC)c2c3cc(ccc31)N1CCOC(CC(NC(=O)C(C(C)C)N(C)C(=O)C3(F)CCN(C(=O)C#CC(C)(C)N(C)C)CC3)C(=O)N3CCCC(N3)C(=O)OCC(C)(C)C2)C1

>  <result units>
%

>  <viability, T/C>
63

$$$$
>  <compound>
CC1(O)CCCC1n1c(=O)c(C(F)F)cc2cnc(NC3CCN(S(C)(=O)=O)CC3)nc21 (centres undefined) + CCn1c(-c2cc(N3CCN(C)CC3)cnc2C(C)OC)c2c3cc(ccc31)-c1csc(n1)CC(NC(=O)C1CC1C)C(=O)N1CCCC(N1)C(=O)OCC(C)(C)C2

>  <result units>
%

>  <viability, T/C>
50.9

$$$$

----------
Test system: 695427-040-R-J1-PDC complex spheroid viability
Assay: Anticancer human tumor 695427-040-R-J1-PDC cell line growth inhibition [RAS];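 further: viability read after seven days of drug exposure; 100% = DMSO vehicle control viability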
Conditions: second compound 0.3 µM; first compound 0.1 µM; hits give low values

>  <molecule>
O=C(c1ccc(F)c(F)c1Nc1ccc(I)cc1F)N1CC(O)([C@@H]2CCCCN2)C1 + CCn1c(-c2cc(N3CCN(C)CC3)cnc2C(C)OC)c2c3cc(ccc31)-c1csc(n1)CC(NC(=O)C1CC1C)C(=O)N1CCCC(N1)C(=O)OCC(C)(C)C2

>  <viability, T/C>
6.62%

$$$$
>  <molecule>
C=CC(=O)N1CCN(c2nc(OCC3CCCN3C)nc3c(F)c(-c4nc(N)cc(C)c4C(F)(F)F)c(Cl)cc23)C(C)C1 (centres undefined) + CCn1c(-c2cc(N3CCN(C)CC3)cnc2C(C)OC)c2c3cc(ccc31)-c1csc(n1)CC(NC(=O)C1CC1C)C(=O)N1CCCC(N1)C(=O)OCC(C)(C)C2

>  <viability, T/C>
38%

$$$$
>  <molecule>
NC1c2ccccc2OC12CCN(c1cnc3c(N4CCCc5ncccc54)n[nH]c3n1)CC2 (centres undefined) + CCn1c(-c2cccnc2C(C)OC)c2c3cc(ccc31)N1CCOC(CC(NC(=O)C(C(C)C)N(C)C(=O)C3(F)CCN(C(=O)C#CC(C)(C)N(C)C)CC3)C(=O)N3CCCC(N3)C(=O)OCC(C)(C)C2)C1

>  <viability, T/C>
46.4%

$$$$
>  <molecule>
CC(Nc1ccc2c(c1)OCCn1cc(N3C(=O)OCC3C(F)F)nc1-2)C(N)=O (centres undefined) + CCn1c(-c2cc(N3CCN(C)CC3)cnc2C(C)OC)c2c3cc(ccc31)-c1csc(n1)CC(NC(=O)C1CC1C)C(=O)N1CCCC(N1)C(=O)OCC(C)(C)C2

>  <viability, T/C>
22.2%

$$$$
